Numbers sourced from PubChem BioAssay (NCI).

# methodSummary: NCI Yeast Anticancer Drug Screen. Data for the cln2 rad14 strain (AID 165);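 note: 0% = growth equal to vehicle treated cultures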
# settings: S. cerevisiae cln2 rad14 strain, at 50.0 µM, stronger effect = higher value
This is part of a sample that, as a whole, favours compounds with a hit. Of some 79,000 tested, about 15% had one in any assay.
readoutLabel: growth inhibition (%)

>>> value("O=C(NCCc1ccccc1)c1ccc(Cl)cc1")
10.8
>>> value("CCN(CC)c1ccc(N=C2C=C(C(=O)Nc3ccc(S(C)(=O)=O)cc3)C(=O)c3ccccc32)c(C)c1")
6.6
>>> value("Ic1ccc(-n2cccc2)cc1")
-3.25
>>> value("COC(=O)C1=CCS(=O)(=O)C1")
6.1
>>> value("CC1(C)OC2C(C3N(c4ccccc4)CCN3c3ccccc3)OC(n3ccc(=O)[nH]c3=O)C2O1 (centres undefined)")
14.1
>>> value("CN(CC(O)CN1CCCc2ccccc21)C1CCCCC1 (centres undefined)")
-16
>>> value("Cc1nc(-c2ccccc2)oc1-c1ccccc1")
6.95
>>> value("CS(=O)(=O)CC(=O)c1ccc(O)cc1O")
-43.2
>>> value("Cc1ccc(=O)n(Cc2ccccc2)n1")
21.1
>>> value("CC(=O)/C(=C/N1CCNC1=S)C(=O)Nc1ccc([N+](=O)[O-])cc1")
-33
>>> value("CCOC(=O)NN(C(=O)OCC)c1c(NN)n(C)c(=O)n(C)c1=O")
-10.4
>>> value("CC(CO)c1ccccc1 (centres undefined)")
-32.5
>>> value("O=C1C=CC(=O)c2c1c1c(c3c2C2c4ccccc4C3c3ccccc32)C2c3ccccc3C1c1ccccc12")
-8.25
>>> value("COc1c(CC=C(C)C)c(O)c(C(CC(C)C)c2c(O)c(CC=C(C)C)c(O)c(C(C)=O)c2O)c(O)c1C(C)=O (centres undefined)")
41.3
>>> value("O=c1[nH]c2ccccc2[nH]1")
-28
>>> value("Nc1nc(SCc2ccccc2Cl)cc(C(=O)O)n1")
4.15
>>> value("O=C(Nc1nc2c(ncn2C2OC(CO)C(O)C2O)c(=O)[nH]1)c1ccccc1 (centres undefined)")
11.6
>>> value("CCCCCCCC[N+](C)([O-])CCCCCC[N+](C)([O-])CCCCCCCC (centres undefined)")
66.8
>>> value("N#CC1(C#N)C2(c3ccccc3)OC(c3ccccc3)(c3cc4ccccc4cc32)C1(C#N)C#N")
14.1
>>> value("OC1CCCCC1OC1CCc2ccccc2C1 (centres undefined)")
29.9
>>> value("Cc1cc(S(=O)(=O)Nc2n[nH]c(N)n2)c(SCC(=O)O)cc1Cl")
8.55
>>> value("CC1CC(C)C2=NOS3=C2C1=NO3 (centres undefined)")
21.4
>>> value("O=C(c1ccccc1)C(c1ccccc1)S(=O)(=O)N1CCOCC1 (centres undefined)")
-13.1
>>> value("CCC(=O)Nc1cccc(OC(=O)NC2CCCCC2)c1")
1.3
